tgt: T1, CD73 on the surface of human cells (human, UniProt P21589 27-549)
T1 construct: whole, on cells; The cell line of each value is named under assay or readout; also called CD73 on the surface of tumor cells; CD73 enzyme on the surface of MDA-MB-231 cells
T1 sequence (looked up): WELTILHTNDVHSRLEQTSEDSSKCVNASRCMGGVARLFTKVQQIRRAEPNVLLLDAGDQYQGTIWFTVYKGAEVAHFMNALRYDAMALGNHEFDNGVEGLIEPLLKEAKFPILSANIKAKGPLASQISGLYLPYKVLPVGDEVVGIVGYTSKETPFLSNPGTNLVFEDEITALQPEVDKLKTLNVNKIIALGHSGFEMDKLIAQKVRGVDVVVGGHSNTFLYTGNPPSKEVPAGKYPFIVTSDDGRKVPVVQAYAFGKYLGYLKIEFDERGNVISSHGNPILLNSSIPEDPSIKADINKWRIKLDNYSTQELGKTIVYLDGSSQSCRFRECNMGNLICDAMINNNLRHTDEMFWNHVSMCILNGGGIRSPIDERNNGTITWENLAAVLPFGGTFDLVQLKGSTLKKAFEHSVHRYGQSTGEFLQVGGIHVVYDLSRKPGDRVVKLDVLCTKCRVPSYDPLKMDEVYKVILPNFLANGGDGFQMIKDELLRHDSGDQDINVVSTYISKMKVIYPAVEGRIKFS
assayInfo: Flow cytometry on PC9 cells, PE-labelled secondary antibody [panel A]
Protocol: 100 μL of the test antibodies diluted from 10 μg/mL to 0.016 μg/mL in a 5-fold gradient were used as the primary antibodies, and were mixed with 1×10⁵ tumor cells suspended in 100 μL RPMI-1640 serum-free medium to make a final concentration of 5 μg/mL diluted to 0.008 μg/mL, and then incubated at 4° C. for 1 h. […] The binding affinity of the test antibodies to CD73 on the surface of the corresponding cells was measured by flow cytometry.
Max MFI listing for selected binders.
Write the value in MFI as a bare number.

{"columns": ["binder", "unitsOfMeasure", "Max MFI"],
 "data": [
  ["chimeric nanobody 5-E11 (Fc fusion, Human-alpaca chimeric antibody (VHH on hIgG1 Fc); Only the VHH is tied to the tested molecule; also called original antibody 5-E11) VHH: ALQLVESGGGLVQPGGSLRLSCEVSGFTLDYYNIGWFRQAPGKEREGVSCSSNSGGSTYYADSVKGRFTISRDNAKNTVYLQMNSLKPEDTGVYYCAAYRGWHPSLDARVYDYWGQGTEVTVSS", "MFI", 58900],
  ["chimeric nanobody 3-D7 (Fc fusion, Human-alpaca chimeric antibody (VHH on hIgG1 Fc); Only the VHH is tied to the tested molecule; 37-39 exist for 3-D7-FC1/FC2/FC3; also called original antibody 3-D7) VHH: QRQLVESGGGLVQPGGSLRLSCAASGFLLDYYVIGWFRQAPGKEREGVSCISGSDRSTYYADSVKGRFTISRDNAKNTVYLQMNSLKPEDTAVYFCAADPSPVTVQAMCLPRFPVPYWGQGTQVTVST", "MFI", 58800],
  ["chimeric nanobody 4-B02 (Fc fusion, Human-alpaca chimeric antibody) VHH: EVQLVESGGGLVQPGGSLRLSCAASGFPLDYYSIGWFRQAPGKEREGVSCIGSSDGSTYYADSVKGRFTISRDNAENTVWLQMNSLKPEDTAVYYCAALKYYYCSGHEAIYDYWGQGTQVTVSG", "MFI", 61600]
]}

Consider the record given below.
The binder listed as chimeric nanobody 4-D04 (Fc fusion, Human-alpaca chimeric antibody) VHH: QLQLVESGGGLVQPGGSLRLSCAASGFTLDYYNIGWFRQAPGKEREGVSCISSSEGSTYYADSVKGRFTISRDNAKNTVYLQMNSLKPEDTAVYYCAADRYYYCSLHVSQYDYWGQGTLVTVSS has a reported Max MFI of 65000
